tested on: AncSZ; test: phosphorylation enrichment, bacterial display (enrichment ratio); higher = better substrate or ligand; peptides without Tyr show the background

primary_sequence: QSSALYEDRFL [ASS1_Y83_YF]
phosphorylation enrichment: 1.19
--
primary_sequence: SGGSSYGSGGG [KRT1_Y532]
phosphorylation enrichment: 0.506
--
primary_sequence: EERNPYFSSAR [MCCC2_Y520_G517R_YF]
phosphorylation enrichment: 0.769
--
primary_sequence: NVTGHYIPPFH [PPA2_Y59_S61P]
phosphorylation enrichment: 0.518
--
primary_sequence: SILAVYSKDNF [PANK2_Y400_YF]
phosphorylation enrichment: 0.868
--
primary_sequence: EQLRAYLEGEC [HLA-C_Y183_T187E]
phosphorylation enrichment: 1.3
--
primary_sequence: RSDEDYLFREE [POR_Y573_YF]
phosphorylation enrichment: 1.47
--
primary_sequence: AEKPKYQISNI [TJP1_Y1602_N1605S]
phosphorylation enrichment: 0.896
--
primary_sequence: KIVYVYVKKRS [DNAI2_Y7_E2K]
phosphorylation enrichment: 1.13
--
primary_sequence: CTTSHYNFMCN [TP53_Y234_I232S_YF]
phosphorylation enrichment: 0.911
--
primary_sequence: GSIQQYIFKQE [PRG4_Y1271_YF]
phosphorylation enrichment: 0.836
--
primary_sequence: DDEENYENVPR [FCRL3_Y722]
phosphorylation enrichment: 1.3
--
primary_sequence: IVKAFYVRARA [AIPL1_Y268_YF]
phosphorylation enrichment: 1.11
--
primary_sequence: DPHQQYFIAMD [TBX15_Y159_YF]
phosphorylation enrichment: 0.93

----------
test system: Fer (mouse); experiment: phosphorylation enrichment, bacterial display (enrichment ratio); higher = better substrate or ligand; peptides without Tyr show the background
Classification field: met = phosphorylation enrichment at or over 0.4; not met = phosphorylation enrichment under 0.4.

primary_sequence: DGKFSYLKVGH [GRM3_Y480_G475D_YF]
target_desc: Fer (mouse)
qualitative_label: not met
//
primary_sequence: NFATLYLKIYH [PDE6B_Y219]
target_desc: Fer (mouse)
qualitative_label: met
//
primary_sequence: NGSKGYAFVHF [PABPC5_Y147_YF]
target_desc: Fer (mouse)
qualitative_label: met
//
primary_sequence: KYVKMCDNHQL [MYO9A_Y203_Y203C]
target_desc: Fer (mouse)
qualitative_label: not met
//
primary_sequence: IVKAFYVRARA [AIPL1_Y268_YF]
target_desc: Fer (mouse)
qualitative_label: met
//
primary_sequence: HSFQCYGQNEA [ENTPD3_Y262_R264Q]
target_desc: Fer (mouse)
qualitative_label: not met
//
primary_sequence: RRERDYTNLPS [CSF1R_Y923]
target_desc: Fer (mouse)
qualitative_label: met
//
primary_sequence: ADLAKYICENQ [ALB_Y287]
target_desc: Fer (mouse)
qualitative_label: met
//
primary_sequence: ASELGYVFQAI [UROD_Y133]
target_desc: Fer (mouse)
qualitative_label: not met
//
primary_sequence: TSHKGYVAFLE [CARD9_Y76_G72S]
target_desc: Fer (mouse)
qualitative_label: not met
//
primary_sequence: KLFFIYTSGTT [SLC27A4_Y245_YF]
target_desc: Fer (mouse)
qualitative_label: met
//
primary_sequence: FLRTGYSVPFG [TGM1_Y370_YF]
target_desc: Fer (mouse)
qualitative_label: met
//
primary_sequence: DGLASYLDKVR [KRT12_Y139_R135G]
target_desc: Fer (mouse)
qualitative_label: not met
//
primary_sequence: SLNAVYPRAGR [OAS3_Y376_S381R]
target_desc: Fer (mouse)
qualitative_label: not met
//
primary_sequence: TPLSAYQIPRT [GAB2_Y324]
target_desc: Fer (mouse)
qualitative_label: met
//
primary_sequence: ICANKYMVKSC [RPL10_Y75]
target_desc: Fer (mouse)
qualitative_label: met
//
primary_sequence: FDDIAHIRKTL [PIK3CA_Y1021_Y1021H]
target_desc: Fer (mouse)
qualitative_label: met
//
primary_sequence: PLQKTYNYNVL [SLC4A1_Y553]
target_desc: Fer (mouse)
qualitative_label: met
//
primary_sequence: KIDAKYKKKIK [WDR19_Y1230_E1235K]
target_desc: Fer (mouse)
qualitative_label: met
//
primary_sequence: HVIKLFGACSQ [RET_Y791_Y791F]
target_desc: Fer (mouse)
qualitative_label: met
//
primary_sequence: TNIKRYHIAKG [HARS1_Y150_V155G]
target_desc: Fer (mouse)
qualitative_label: not met
//
primary_sequence: ASLLPYFPAIM [IPO4_Y518]
target_desc: Fer (mouse)
qualitative_label: met
//
primary_sequence: DYYDLYGGEKK [PTPN11_Y66_F71K]
target_desc: Fer (mouse)
qualitative_label: met
//
primary_sequence: DPASAYADEVK [ETNPPL_Y189_S185P]
target_desc: Fer (mouse)
qualitative_label: met
//
primary_sequence: ESDFTYSSSFE [SRPK2_Y427_YF]
target_desc: Fer (mouse)
qualitative_label: met
//
primary_sequence: SMEGLYSSAQD [CLIC5_Y111_T114A]
target_desc: Fer (mouse)
qualitative_label: met
//
primary_sequence: SIKDKYVTVLY [KCNH2_Y611_A614V]
target_desc: Fer (mouse)
qualitative_label: met
//
primary_sequence: PIAPVYAASMV [ACAT1_Y331]
target_desc: Fer (mouse)
qualitative_label: met

----------
tested on: c-Abl (mouse); experiment: phosphorylation enrichment, bacterial display (enrichment ratio); higher = better substrate or ligand; peptides without Tyr show the background
Classification field: satisfied = phosphorylation enrichment at or over 0.5; not satisfied = phosphorylation enrichment under 0.5.

primary_sequence: LAIEWYVVVCK [RHO_Y136_R135W]
qualitative_label: satisfied

primary_sequence: NFATLYLKIFH [PDE6B_Y219_YF]
qualitative_label: satisfied

primary_sequence: KVMANYVFKAG [MAML2_Y513_M514V_YF]
qualitative_label: not satisfied

primary_sequence: KVMANYMYKAG [MAML2_Y513]
qualitative_label: satisfied

primary_sequence: HNLDFYKQTTN [FGFR3_Y648_K650Q_YF]
qualitative_label: satisfied

primary_sequence: ATGGFYSYGGG [KRT24_Y120]
qualitative_label: satisfied

primary_sequence: RLLRGYDQSAY [HLA-C_Y137]
qualitative_label: not satisfied

----------
Measured phosphorylation enrichment by item
system: Fer (mouse); experiment: phosphorylation enrichment, bacterial display (enrichment ratio); higher = better substrate or ligand; peptides without Tyr show the background
readout: phosphorylation enrichment

primary_sequence: TEALFYTDDTA [ADPRS_Y75_YF]
readout: phosphorylation enrichment
result: 0.557
--
primary_sequence: YDKEYYSVHNK [MET_Y1235]
readout: phosphorylation enrichment
result: 0.425
--
primary_sequence: SDVCMYRKNTF [SYNE2_Y570_I574T_YF]
readout: phosphorylation enrichment
result: 0.382
--
primary_sequence: VAMELYVFGGV [GAN_Y471]
readout: phosphorylation enrichment
result: 0.574
--
primary_sequence: QRRYVYYYSYL [PTEN_Y176]
readout: phosphorylation enrichment
result: 0.987
--
primary_sequence: CTTSHYNFMCN [TP53_Y234_I232S_YF]
readout: phosphorylation enrichment
result: 0.552
--
primary_sequence: YYHCTYKKRMI [CLEC12A_Y242]
readout: phosphorylation enrichment
result: 0.558

----------
target: SHP2-C SH2; experiment: SH2 binding enrichment of the phosphorylated peptide, bacterial display (enrichment ratio); higher = better substrate or ligand; peptides without Tyr show the background;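 note: peptide library displayed on the E. coli surface as eCPX fusions, selected cells deep-sequenced, score is each peptide's frequency after selection divided by its frequency in the input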

primary_sequence: NMHSTYAKLAA [SEC22B_Y193]
SH2 binding enrichment: 13.7
//
primary_sequence: SDVSSYLEGQA [GCG_Y110]
SH2 binding enrichment: 0.738
//
primary_sequence: ERLWVYGMSSS [F8_Y1728_D1727V]
SH2 binding enrichment: 0.688
//
primary_sequence: EPVSDYINANI [PTPN11_Y304]
SH2 binding enrichment: 0.911
//
primary_sequence: GSQERYFELVE [TSC2_Y407]
SH2 binding enrichment: 0.499
//
primary_sequence: HQNGTYGLHQD [SGSH_Y89_M88T]
SH2 binding enrichment: 0.666
//
primary_sequence: SLNAVYPRAGR [OAS3_Y376_S381R]
SH2 binding enrichment: 0.63
//
primary_sequence: EERNPYFSSAR [MCCC2_Y520_G517R_YF]
SH2 binding enrichment: 0.789
//
primary_sequence: FPHVISARLWR [SMAD4_Y95_Y95S]
SH2 binding enrichment: 1.08
//
primary_sequence: LLNAIYLSAKR [SERPING1_Y294_W299R]
SH2 binding enrichment: 1.59
//
primary_sequence: KSDVVYTDWKK [ORM1_Y175]
SH2 binding enrichment: 0.885
//
primary_sequence: LECEWYKNGVK [TTN_Y2112_P2107L]
SH2 binding enrichment: 0.48
//
primary_sequence: LHAALYKRKLL [TTLL5_Y542_E543K]
SH2 binding enrichment: 2.26
//
primary_sequence: PMDTYYDSTRG [DYNC2H1_Y2231]
SH2 binding enrichment: 0.44
//
primary_sequence: HYECKYVINAI [MAOA_Y268]
SH2 binding enrichment: 0.634
//
primary_sequence: PVKDGYQMAQP [CSF1R_Y873_L868P]
SH2 binding enrichment: 0.673
//
primary_sequence: TSHKGYVAFLE [CARD9_Y76_G72S]
SH2 binding enrichment: 0.724
//
primary_sequence: IFGVSYGEYRY [CFTR_Y512_D513G]
SH2 binding enrichment: 1.1
//
primary_sequence: FKIFRYTLNDN [FN1_Y1975_L1974R_YF]
SH2 binding enrichment: 0.958
//
primary_sequence: PLQHVYKIGGI [EEF1A2_Y254_D252H]
SH2 binding enrichment: 0.588
//
primary_sequence: CTTIHDNYMCN [TP53_Y234_Y234D]
SH2 binding enrichment: 0.837
//
primary_sequence: QMVDMYASSYM [AVPR2_Y124_G122D]
SH2 binding enrichment: 0.602
//
primary_sequence: RGSQQYRALPV [TUBB8_Y281_T285P]
SH2 binding enrichment: 1.49
//
primary_sequence: DALDNYVVRGV [PCCA_Y473_I475V]
SH2 binding enrichment: 0.725
//
primary_sequence: MGIMLYGVDSR [PKD1_Y3143_V3138M]
SH2 binding enrichment: 0.653
//
primary_sequence: LVRPPYSYLAL [FOXI1_Y126_S129L]
SH2 binding enrichment: 3.61
//
primary_sequence: NPQKSYFICLY [WAS_Y83_R86C]
SH2 binding enrichment: 0.66
//
primary_sequence: METKGYQSLPE [NR3C2_Y6_H7Q]
SH2 binding enrichment: 0.557
//
primary_sequence: LFLACYFIGGG [UBD_Y161_C162F]
SH2 binding enrichment: 0.855

Data provenance: the supplement of paper PMC10065799
